Below, each entry is listed with its recorded INHIBITION OF PAI-1 (degree of inhibition).
target: PAI-1 (Homo sapiens, UniProt P05121); test: PAI-1 inhibition in the S2251 chromogenic substrate assay (PAI functional assay); assay type: biochemical; settings: 25 μm; Table 1, first part; unit assumed
Sequence (P05121 24-402): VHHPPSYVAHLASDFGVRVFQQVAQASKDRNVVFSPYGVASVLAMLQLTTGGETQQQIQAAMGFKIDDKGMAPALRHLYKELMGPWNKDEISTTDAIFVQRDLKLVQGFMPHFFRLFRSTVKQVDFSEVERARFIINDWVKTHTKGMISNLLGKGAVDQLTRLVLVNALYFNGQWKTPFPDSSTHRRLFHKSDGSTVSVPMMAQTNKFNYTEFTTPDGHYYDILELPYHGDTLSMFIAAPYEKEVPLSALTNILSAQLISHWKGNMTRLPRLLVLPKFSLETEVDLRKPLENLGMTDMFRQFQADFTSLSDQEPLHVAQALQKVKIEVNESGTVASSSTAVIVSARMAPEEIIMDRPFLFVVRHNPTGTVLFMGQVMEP
MEASUREMENT_TYPE: INHIBITION OF PAI-1 (degree of inhibition) (%)

smiles_text=CC(=O)Nc1ccc(/C=c2\[nH]c(=O)/c(=C/c3ccc4c(c3)OCO4)[nH]c2=O)cc1 val=49
smiles_text=COc1ccc(/C=c2\[nH]c(=O)/c(=C/c3ccc(OC(=O)CN4C(=O)c5ccccc5C4=O)cc3)[nH]c2=O)cc1 val=18
smiles_text=CCOC(OCC)c1ccc(/C=c2\[nH]c(=O)/c(=C/c3ccccc3)[nH]c2=O)cc1 val=17
smiles_text=CC(C)(C)OC(=O)n1cc(/C=c2\[nH]c(=O)/c(=C/c3cccs3)[nH]c2=O)c2ccccc21 val=3
smiles_text=O=c1[nH]/c(=C\c2ccccc2)c(=O)[nH]/c1=C\C=C(c1ccccc1)c1ccccc1 val=26

====

Below, each entry is listed with its recorded IC50.
target: PAI-1 (Homo sapiens, UniProt P05121); assay: PAI-1 inhibition in the S2251 chromogenic substrate assay (PAI functional assay); type: biochemical; settings: PAI-1, S2251 assay; Table 2
MEASUREMENT_TYPE: IC50

smiles_text=O=c1[nH]/c(=C\c2c[nH]c3ccccc23)c(=O)[nH]/c1=C\c1ccccc1 system_under_test="PAI-1 (Homo sapiens, UniProt P05121)" val="50 to 100 µM"
smiles_text=O=c1[nH]/c(=C\c2ccc(OCCn3ccnc3)cc2)c(=O)[nH]/c1=C\c1ccccc1 system_under_test="PAI-1 (Homo sapiens, UniProt P05121)" val="5 to 10 µM"
smiles_text=COc1ccc(/C=c2\[nH]c(=O)/c(=C/c3cn(S(C)(=O)=O)c4ccccc34)[nH]c2=O)cc1 system_under_test="PAI-1 (Homo sapiens, UniProt P05121)" val="50 to 100 µM"
smiles_text=COc1ccc(/C=c2\[nH]c(=O)/c(=C/c3cccn3C(=O)OC(C)(C)C)[nH]c2=O)cc1 system_under_test="PAI-1 (Homo sapiens, UniProt P05121)" val="25 to 50 µM"

====

Target: PAI-1 (Homo sapiens, UniProt P05121)
Assay: PAI-1 inhibition in the S2251 chromogenic substrate assay (PAI functional assay)
Format: biochemical
Conditions: 50 μm; Table 1, first part; unit assumed
Experimental: In this assay, a compound is incubated with PAI-1 prior to addition to the tPA assay system. Inhibition of PAI-1 results in the production of plasmin from plasminogen. […] Compounds of formula (A) were tested in a PAI chromogenic substrate assay. […] In turn, the plasmin cleaved the chromogenic substrate S2251 (Kabi-Vitrum) producing pNA (p-nitroaniline) which was detected scectrophotometrically at 405 nm.
Structures can show the parent of a compound that is named as a salt.
MEASUREMENT_TYPE: INHIBITION OF PAI-1 (degree of inhibition) (%)

molecule="O=c1[nH]/c(=C\\c2ccc(-n3ccnc3)cc2)c(=O)[nH]/c1=C\\c1ccccc1 [Compound 1930]" val=61
molecule="CC(C)(C)OC(=O)n1cc(/C=c2\\[nH]c(=O)/c(=C/c3ccccc3)[nH]c2=O)c2ccccc21 [Compound 1471]" val=60
molecule="COc1ccc(/C=c2\\[nH]c(=O)/c(=C/c3c[nH]c4ccccc34)[nH]c2=O)cc1 [Compound 1545]" val=64
molecule="O=c1[nH]/c(=C\\c2ccccc2)c(=O)[nH]/c1=C\\C=Cc1ccc([N+](=O)[O-])cc1 [Compound 1923]" val=31
molecule="CN1CCC(N(C)Cc2ccc(/C=c3\\[nH]c(=O)/c(=C/c4ccccc4)[nH]c3=O)cc2)CC1 [Compound 1983]" val=14
molecule="CN(C)CCN(C)Cc1ccc(/C=c2\\[nH]c(=O)/c(=C/c3ccccc3)[nH]c2=O)cc1 [Compound 1982, hydrochloride]" val=49
molecule="CCOC(OCC)c1ccc(/C=c2\\[nH]c(=O)/c(=C/c3ccccc3)[nH]c2=O)cc1 [Compound 1891]" val=36
molecule="O=c1[nH]/c(=C\\C2CCCCC2)c(=O)[nH]/c1=C\\c1ccccc1 [Compound 1884]" val=14
